Quick reference for protein stability index among some variants
B1: PBXIP1 (parent)
chain: EKQKQPRWREGTKDSHDPLPSWAE

variants of: B1; assay: protein stability index of a GFP-peptide fusion (GPS, HEK-293T) (PSI 1-6); higher = more stable; settings: c terminus: a fixed tail appended;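 note: lentivirally expressed fusions sorted by FACS into six bins by GFP to DsRed ratio, PSI derived from sequencing read proportions per bin multiplied by bin number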
Enter a number only.

Some solved cases for reference:
K4V = 1.21
R7Y = 1.47
G11D = 2.02

Query: protein stability index; subject: A23H
4.04

Query: protein stability index; subject: A23M
3.36
